- Experimental system: T1, human TREM2 on the cell surface (human, UniProt Q9NZC2 19-230)
- T1 sequence: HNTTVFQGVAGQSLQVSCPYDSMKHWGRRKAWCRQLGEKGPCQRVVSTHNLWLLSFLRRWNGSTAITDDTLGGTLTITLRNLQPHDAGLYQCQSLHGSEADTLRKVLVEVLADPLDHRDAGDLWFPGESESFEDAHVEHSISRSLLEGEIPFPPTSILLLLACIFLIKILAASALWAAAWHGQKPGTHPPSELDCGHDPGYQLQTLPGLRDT
- Procedure summary: cell-based or functional assay
Respond with fulfilled for pSyk activation (human macrophages) EC50 (nM) values of 10 nM and above, not fulfilled for values below.

Binder	Class name
CL0020127 (antibody, V domains shown, also called Clone CL0020127) VH: EVQLQQSGPVLVKPGASVKMSCKASGYKFTDYYMNWVKQSHGKSLEWIGTINPYSGGISYNQKFKGKATLTVDKSSSTAYMELNSLTSEASAVYYCTRRNWDGRYAMDYWGQGTSVTVSS VL: DIVMTQSHKFMSTSVGDRVSITCKASQDVSTAVAWYQQKPGQSPKLLIYWASTRHTGVPDRFTGSGSGTDFTLTISNVQSEDLAEYFCQQYSSYPFTFGGGTKLEIK	fulfilled
CL0020210 (antibody, V domains shown, also called Clone CL0020210; CL020210) VH: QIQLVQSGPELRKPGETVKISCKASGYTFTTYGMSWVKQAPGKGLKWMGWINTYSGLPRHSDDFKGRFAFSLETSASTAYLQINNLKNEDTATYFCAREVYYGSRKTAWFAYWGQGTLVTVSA VL: DLVMSQSPSSLAVSVGERITMTCKSSQSLLYSNDQKNYLAWYQQIPGQSPKLLLYWASTRESGVPDRFTGSGSGTDFTLTISSVKAEDLAVYFCQQYYNYPPTFGAGTKLELK	fulfilled
CL0020188 (antibody, V domains shown, also called Clone CL0020188) VH: EVKLLDSGGGLVQAGGSLRLSCAGSGFTFTDFYMSWIRQPPGKAPEWLGVIRNKANGYTAGYNPSVKGRFTISRDNTQNILYLQMNTLRAEDTAIYYCARLTYGFDYWGQGVMVTVSS VL: DIVMTQGALPNPVPSGESASITCQSSKSLLHSNGKTYLNWYLQRPGQSPQLLIYWMSTRASGVSDRFSGSGSGTDFTLKISSVEAEDVGVYYCQQFLEYPFTFGSGTKLEIK	not fulfilled
CL0020195 (antibody, V domains shown, also called Clone CL0020195) VH: EVQLVESGGGLVQPGRSMMLSCSASGFTFSNYHMAWVRQAPTTGLEWVASITTGSGNTYYRHSVKGRFTISRDNAKSTLYLQMDSLRSEDTASYYCARRWYGGYEGYYFDYWGQGVMVTVSS VL: DIQMTQSPSLLSASVGDRVTLSCKAGQNVNNYLAWYQQKLGEAPKLLIYNANILQTGFPSRFSGTGSGTDFTLTISSLQPEDVATYFCQQYNSWTTFGGGTKLELK	fulfilled
CL0020139 (antibody, V domains shown, also called Clone CL0020139) VH: EVQLQQSGPELVKPGASVKMSCKAPGYSFTSYLMNWVKQKPGQGLEWIGYINPYSAGSNYNEKFKDKATLTSDKSSSTAYMELRSLTSEDSAVYFCARSSYRYGFDYWGQGTTLTVSS VL: DIQMTQSSSSFSVSLGDRVTITCKASEDIYNRLAWYQQKPGNAPRLLISGATSLETGVPSRFSGSGSGKDYTLSITSLQTEDVATYSCQQYWSTPWTFGGGTKLEIK	fulfilled
